Protocol: self-splicing fitness, log relative to wild type (ln ratio); higher = more splicing; Tetrahymena group I intron in knt gene, E. coli kanamycin selection, DiMSum; sequences stand for … in CUCUCU…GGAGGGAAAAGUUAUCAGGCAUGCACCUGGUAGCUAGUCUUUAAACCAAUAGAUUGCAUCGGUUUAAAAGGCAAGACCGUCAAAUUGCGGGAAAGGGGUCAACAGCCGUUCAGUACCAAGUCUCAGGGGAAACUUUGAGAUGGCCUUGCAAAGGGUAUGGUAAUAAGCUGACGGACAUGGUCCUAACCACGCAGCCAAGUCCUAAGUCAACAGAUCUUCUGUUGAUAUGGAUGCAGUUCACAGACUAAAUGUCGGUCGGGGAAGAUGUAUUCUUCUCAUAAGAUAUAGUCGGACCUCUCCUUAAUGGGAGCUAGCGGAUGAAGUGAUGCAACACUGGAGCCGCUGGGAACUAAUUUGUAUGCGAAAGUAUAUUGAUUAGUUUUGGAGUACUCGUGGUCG;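 further: selection with 25 µg/mL kanamycin versus none on LB agar overnight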
Measurement Conditions: 30 °C
# cutoff -3 applies to self-splicing fitness (ln); >= gives Satisfied, < gives Not satisfied

Determine whether this sequence has self-splicing fitness (ln) no lower than -3: UCUCAGCAAUAUUACGGGGU
Not satisfied
